# experiment: PK data for BTK CTMs (in vivo plasma concentrations)
# measurement_parameters: Rat Sprague-Dawley, 10 mg/kg PO
reported_endpoint: bioavailability (%)
Respond numerically; units are % and should not be typed.

Consider the worked cases shown below.
1. NC(=O)c1ncc(N2CCCCC2)nc1Nc1ccc(C2CCN(C[C@@H]3CCN(c4ccc5c(c4)C(=O)N(C4CCC(=O)NC4=O)C5=O)C3)CC2)cc1 (some centres unmarked) [Compound 149] : 7
2. CN1CCN([C@@H]2CCCN(c3cnc(C(N)=O)c(Nc4ccc(C5CN(C6CCN(c7ccc8c(c7)C(=O)N(C7CCC(=O)NC7=O)C8=O)CC6)C5)cc4)n3)C2)C1=O (some centres unmarked) [Compound 37] : 1
3. CN1CCN([C@@H]2CCCN(c3cnc(C(N)=O)c(Nc4ccc(C5CCN(C6CN(c7ccc8c(c7)C(=O)N(C7CCC(=O)NC7=O)C8=O)C6)CC5)cc4)n3)C2)C1=O (some centres unmarked) [Compound 53] : 97
4. CN1CCN([C@H]2CCCN(c3cnc(C(N)=O)c(Nc4ccc(C5CCN(CC6CCN(c7ccc(C(=O)NC8CCC(=O)NC8=O)nc7)CC6)CC5)cc4)n3)C2)C1=O (some centres unmarked) [Compound 130] : 32

Now for a further compound.
Determine its reported bioavailability: CN1CCN([C@@H]2CCCN(c3cnc(C(N)=O)c(Nc4ccc(C5CCN(CC6CCN(c7ccc(-c8nn(C9CCC(=O)NC9=O)c(=O)n8C)cc7)CC6)CC5)cc4)n3)C2)C1=O (some centres unmarked) [Compound 121]
1

----------
# experiment: PK data for BTK CTMs (in vivo plasma concentrations)
# measurement_parameters: Monkey cynomolgus, 1 mg/kg IV
reported_endpoint: AUC (µM·h)
Respond numerically; units are µM·h and should not be typed.

Determine its reported AUC: NC(=O)c1ncc(N2CCCCC2)nc1Nc1ccc(C2CCN(C[C@@H]3CCN(c4ccc5c(c4)C(=O)N(C4CCC(=O)NC4=O)C5=O)C3)CC2)cc1 (stereo partly shown)
1

----------
# system_under_test: BTK (Mus musculus)
# Construct: from tissue; host or cells: mouse blood B cells / splenocytes (CD-1 or BALB/c)
# experiment: In vivo degradation of BTK in mouse PD experiments with oral dosing
# measurement_parameters: oral dose 30 mg/kg, 24 h, blood, flow cytometry
# Procedure: A method of determining the pharmacodynamic profile of BTK degraders was performed by dosing either CD-1 or BALB/c mice with CTM. […] Following administration of CTM, BTK levels in blood or splenocytes are measured using flow cytometry or HTRF. […] Cells were then stained intracellularly with unconjugated BTK antibody and detected with a fluorophore-conjugated secondary antibody. […] The BTK geometric mean fluorescence intensity (MFI) was calculated for B and T cells. […]
Label Y when % BTK Remaining is strictly below 20%; otherwise label N.

1. NC(=O)c1ncc(N2CCCCC2)nc1Nc1ccc(C2CCN(CC3CCN(c4ccc5c(=O)n(C6CCC(=O)NC6=O)ccc5c4)CC3)CC2)cc1 (stereo not shown) : Y
2. NC(=O)c1ncc(N2CCCCC2)nc1Nc1ccc(C2CCN(C[C@@H]3CCN(c4ccc5c(c4)C(=O)N(C4CCC(=O)NC4=O)C5=O)C3)CC2)cc1 (stereo partly shown) : Y
3. CN1CCN([C@@H]2CCCN(c3cnc(C(N)=O)c(Nc4ccc(C5CCN(CC6CN(c7ccc8c(=O)n(C9CCC(=O)NC9=O)ccc8c7)C6)CC5)cc4)n3)C2)C1=O (stereo partly shown) : N
4. CN1CCN([C@H]2CCCN(c3cnc(C(N)=O)c(Nc4ccc(C5CCN(CC6CCN(c7ccc(NC8CCC(=O)NC8=O)cn7)CC6)CC5)cc4)n3)C2)C1=O (stereo partly shown) : Y

Now consider a different compound.
Field: below-cutoff. Rule: recorded % BTK Remaining strictly less than 20%. Subject: CN1CCN([C@@H]2CCCN(c3cnc(C(N)=O)c(Nc4ccc(C5CCN(C[C@H]6CCN(c7ccc8c(c7)n(C)c(=O)n8[C@@H]7CCC(=O)NC7=O)C6)CC5)cc4)n3)C2)C1=O
N

----------
# system_under_test: BTK (Mus musculus)
# Construct: from tissue; host or cells: mouse blood B cells / splenocytes (CD-1 or BALB/c)
# experiment: In vivo degradation of BTK in mouse PD experiments with oral dosing
# measurement_parameters: oral dose 30 mg/kg, 24 h, blood, flow cytometry
reported_endpoint: % BTK Remaining (%)
Respond numerically; units are % and should not be typed.

Consider the worked cases shown below.
1) CN1CCN([C@@H]2CCCN(c3cnc(C(N)=O)c(Nc4ccc(C5CCN(CC6CCN(c7ccc(-c8nn(C9CCC(=O)NC9=O)c(=O)n8C)cc7)CC6)CC5)cc4)n3)C2)C1=O (some centres unmarked) [Compound 121] : 28
2) NC(=O)c1ncc(N2CCC[C@@H](N3CCOC3=O)C2)nc1Nc1ccc(C2CCN(CC3CCN(c4ccc5c(=O)n(C6CCC(=O)NC6=O)ccc5c4)CC3)CC2)cc1 (some centres unmarked) [Compound 153] : 33
3) Cn1c(-c2ccc(N3CCC(CN4CCC(c5ccc(Nc6nc(N7CCC[C@H](N8CCCC8=O)C7)cnc6C(N)=O)cc5)CC4)CC3)cc2)nn(C2CCC(=O)NC2=O)c1=O (some centres unmarked) [Compound 143] : 37

GET % BTK Remaining | system: BTK (Mus musculus) | item: CN1CCN([C@@H]2CCCN(c3cnc(C(N)=O)c(Nc4ccc(C5CCN(C[C@H]6CCN(c7ccc8c(=O)n(C9CCC(=O)NC9=O)ccc8c7)C6)CC5)cc4)n3)C2)C1=O (some centres unmarked) [Compound 115]
30

GET % BTK Remaining | system: BTK (Mus musculus) | item: NC(=O)c1ncc(-c2nccs2)nc1Nc1ccc(N2CCC3(CCN(Cc4ccc5c(c4)C(=O)N(C4CCC(=O)NC4=O)C5=O)CC3)CC2)cc1 (centres unmarked) [Compound 150]
25

----------
# experiment: PK data for BTK CTMs (in vivo plasma concentrations)
# measurement_parameters: Mouse Balb/c, 30 mg/kg PO
reported_endpoint: bioavailability

1. CN1CCN([C@@H]2CCCN(c3cnc(C(N)=O)c(Nc4ccc(C5CN(C6CCN(c7ccc8c(c7)C(=O)N(C7CCC(=O)NC7=O)C8=O)CC6)C5)cc4)n3)C2)C1=O (stereo partly shown) : 5%

Determine its reported bioavailability: CN1CCN([C@@H]2CCCN(c3cnc(C(N)=O)c(Nc4ccc(C5CCN(C6CN(c7ccc8c(c7)C(=O)N(C7CCC(=O)NC7=O)C8=O)C6)CC5)cc4)n3)C2)C1=O (stereo partly shown)
113%

Determine its reported bioavailability: CN1CCN([C@@H]2CCCN(c3cnc(C(N)=O)c(Nc4ccc(C5CCN(C6CN(Cc7ccc8c(c7)CN(C7CCC(=O)NC7=O)C8=O)C6)CC5)cc4)n3)C2)C1=O (stereo partly shown)
2%

Determine its reported bioavailability: CN1CCN([C@@H]2CCCN(c3cnc(C(N)=O)c(Nc4ccc(N5CCC6(CC5)CCN(c5ccc7c(c5)C(=O)N(C5CCC(=O)NC5=O)C7=O)CC6)cc4)n3)C2)C1=O (stereo partly shown)
29%

Determine its reported bioavailability: CN1CCN([C@@H]2CCCN(c3cnc(C(N)=O)c(Nc4ccc(C5CCN(CC6CCN(c7ccc(-c8nn(C9CCC(=O)NC9=O)c(=O)n8C)cc7)CC6)CC5)cc4)n3)C2)C1=O (stereo partly shown)
11%

Determine its reported bioavailability: NC(=O)c1ncc(N2CCCCC2)nc1Nc1ccc(C2CCN(C[C@@H]3CCN(c4ccc5c(c4)C(=O)N(C4CCC(=O)NC4=O)C5=O)C3)CC2)cc1 (stereo partly shown)
1%

Determine its reported bioavailability: CN1CCN([C@H]2CCCN(c3cnc(C(N)=O)c(Nc4cnn(C5CCN(CC6CCN(c7ccc8c(c7)C(=O)N(C7CCC(=O)NC7=O)C8=O)CC6)CC5)c4)n3)C2)C1=O (stereo partly shown)
9%

----------
# system_under_test: BTK (Mus musculus, UniProt P35991)
# Construct: from tissue; host or cells: mouse blood B cells / splenocytes (CD-1 or BALB/c)
# Sequence (P35991 whole entry): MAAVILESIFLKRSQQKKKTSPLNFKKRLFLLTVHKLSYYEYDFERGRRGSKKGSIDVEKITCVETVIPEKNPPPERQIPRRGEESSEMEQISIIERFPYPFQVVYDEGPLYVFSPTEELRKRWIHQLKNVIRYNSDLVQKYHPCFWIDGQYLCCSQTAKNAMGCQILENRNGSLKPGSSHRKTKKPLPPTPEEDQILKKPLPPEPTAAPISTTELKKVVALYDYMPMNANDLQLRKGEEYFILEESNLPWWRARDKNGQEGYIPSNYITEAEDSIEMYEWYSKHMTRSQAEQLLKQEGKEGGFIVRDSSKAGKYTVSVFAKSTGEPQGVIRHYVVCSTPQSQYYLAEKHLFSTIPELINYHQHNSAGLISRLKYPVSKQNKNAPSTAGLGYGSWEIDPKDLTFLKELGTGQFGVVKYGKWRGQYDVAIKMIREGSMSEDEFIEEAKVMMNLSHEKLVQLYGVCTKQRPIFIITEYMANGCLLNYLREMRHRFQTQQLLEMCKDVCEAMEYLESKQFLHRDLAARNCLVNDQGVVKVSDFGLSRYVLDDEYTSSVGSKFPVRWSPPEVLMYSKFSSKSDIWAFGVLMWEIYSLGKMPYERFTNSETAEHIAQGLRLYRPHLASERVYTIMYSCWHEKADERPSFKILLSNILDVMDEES
# experiment: In vivo degradation of BTK in mouse PD experiments with oral dosing
# measurement_parameters: oral dose 0.3 mg/kg, 24 h, blood, flow cytometry
# Description: A method of determining the pharmacodynamic profile of BTK degraders was performed by dosing either CD-1 or BALB/c mice with CTM. […] Following administration of CTM, BTK levels in blood or splenocytes are measured using flow cytometry or HTRF. […] Cells were then stained intracellularly with unconjugated BTK antibody and detected with a fluorophore-conjugated secondary antibody. […] The BTK geometric mean fluorescence intensity (MFI) was calculated for B and T cells. […]
Measured % BTK Remaining of individual entries
Respond numerically; units are % and should not be typed.

1) CN1CCN([C@@H]2CCCN(c3cnc(C(N)=O)c(Nc4ccc(N5CCC6(CC5)CCN(c5ccc7c(c5)C(=O)N(C5CCC(=O)NC5=O)C7=O)CC6)cc4)n3)C2)C1=O (stereo partly shown) : 83
2) CN1CCN([C@@H]2CCCN(c3cnc(C(N)=O)c(Nc4ccc(C5CCN(CC6CCN(c7ccc(-c8nn(C9CCC(=O)NC9=O)c(=O)n8C)cc7)CC6)CC5)cc4)n3)C2)C1=O (stereo partly shown) : 102
3) CN1CCN([C@@H]2CCCN(c3cnc(C(N)=O)c(Nc4ccc(C5CN(CC6CCN(c7ccc8c(=O)n(C9CCC(=O)NC9=O)ccc8c7)CC6)C5)cc4)n3)C2)C1=O (stereo partly shown) : 112

Determine its reported % BTK Remaining: CN1CCN([C@H]2CCCN(c3cnc(C(N)=O)c(Nc4ccc(N5CCC6(CCN(c7ccc8c(c7)C(=O)N(C7CCC(=O)NC7=O)C8=O)CC6)CC5)nc4)n3)C2)C1=O (stereo partly shown)
88
